species: Homo sapiens; assay: Inhibition of CDK4/cyclinD1 at 10 uM
Listed next: entries and their corresponding inhibition.

Worked cases, answers included:
O=C1Cc2cnn(-c3ccccc3)c2-c2ccccc2N1: < 40%
O=C1Cc2cnn(-c3cc(Cl)cc(Cl)c3)c2-c2ccccc2N1: < 40%
O=C1Cc2cnn(-c3ccc(Cl)cc3)c2-c2ccccc2N1: < 40%

Note: attention shifts to another entry.
// query inhibition value for entry O=C1Cc2cnn(-c3cccc(Cl)c3)c2-c2ccccc2N1
> 40%

---

biological target: Serine/threonine-protein kinase PLK1 (Homo sapiens); assay: Inhibition of PLK1 at 10 uM
Entries and their inhibition values follow.

GET /values?readout=inhibition&item= O=C1Cc2cnn(-c3ccc(Br)cc3)c2-c2ccccc2N1
< 40%

Entry under review: O=C1Cc2cnn(-c3ccc(F)cc3F)c2-c2ccccc2N1 . Reported inhibition?
< 40%

Given O=C1Cc2cnn(-c3ccccc3)c2-c2ccccc2N1 , state its recorded inhibition.
< 40%

Item COc1ccc(-n2ncc3c2-c2ccccc2NC(=O)C3)cc1 has what recorded inhibition?
< 40%

Item under review: O=C1Cc2cnn(-c3cccc(Cl)c3)c2-c2ccccc2N1 . Reported inhibition?
< 40%

inhibition for O=C1Cc2cnn(-c3ccccc3Br)c2-c2ccccc2N1 ?
< 40%

Give the measured inhibition of O=C1Cc2cnn(-c3cc(Cl)cc(Cl)c3)c2-c2ccccc2N1 .
< 40%

Reported inhibition, compound Cc1ccc(-n2ncc3c2-c2ccccc2NC(=O)C3)cc1 : ____
< 40%

Dear colleague, I am looking for the recorded inhibition of the following compound: O=C1Cc2cnn(-c3ccccc3F)c2-c2ccccc2N1
< 40%

Param item = O=C1Cc2cnn(-c3ccccc3Cl)c2-c2ccccc2N1 ; retrieve measured inhibition.
< 40%

Would you kindly share the measured inhibition for O=C1Cc2cnn(-c3ccc(Cl)cc3)c2-c2ccccc2N1 ?
< 40%

Value lookup for inhibition; key = O=C1Cc2cnn(-c3ccc(C(F)(F)F)cc3)c2-c2ccccc2N1
< 40%

Looking for the measured inhibition of CC(C)(C)c1ccc(-n2ncc3c2-c2ccccc2NC(=O)C3)cc1 , can you help?
< 40%

Recorded inhibition of Cc1ccccc1-n1ncc2c1-c1ccccc1NC(=O)C2 , please.
< 40%

Find the recorded inhibition belonging to O=C1Cc2cnn(-c3ccc([N+](=O)[O-])cc3)c2-c2ccccc2N1 and report it.
< 40%

Numbers sourced from ChEMBL document CHEMBL1139946.
